Assay: 8 h pharmacokinetic study in wild-type, Cyp3a-/- and Cyp3aXAV mice
Conditions: female, mouse, in vivo, po, 10 mg/kg
Quantity measured: Cmax (ng/mL)
# output: bare number, implied unit ng/mL

Which Cmax reading was recorded for the compound COc1ccc(CN2C3CC2CN(c2ccc(-c4cc(OCC(C)(C)O)cn5ncc(C#N)c45)cn2)C3)cn1 ?
9480

* * *

Test: 8 h pharmacokinetic study in wild-type, Cyp3a-/- and Cyp3aXAV mice
Settings: female, wild-type (>99% FVB genetic background), mouse, in vivo, po, 10 mg/kg, CLiver
Method: Many drugs and prodrugs are metabolized by CYP3A, which can therefore restrict their oral exposure. Mice were housed and handled according to institutional guidelines complying with Dutch and EU legislation. All experimental animal protocols were evaluated and approved by the institutional animal care and use committee. […] Pharmacokinetic parameters were calculated by noncompartmental methods using the PK solver software. […]
Quantity measured: concentration at 8 h (ng/g)
# output: bare number, implied unit ng/g

Which concentration at 8 h reading was recorded for the compound COc1ccc(CN2C3CC2CN(c2ccc(-c4cc(OCC(C)(C)O)cn5ncc(C#N)c45)cn2)C3)cn1 ?
8260

* * *

Assay: 8 h pharmacokinetic study in wild-type, Cyp3a-/- and Cyp3aXAV mice
Conditions: female, FVB, wild-type, mouse, in vivo, po, 10 mg/kg
Quantity measured: Tmax (h)
# output: bare number, implied unit h

Which Tmax reading was recorded for the compound COc1ccc(CN2C3CC2CN(c2ccc(-c4cc(OCC(C)(C)O)cn5ncc(C#N)c45)cn2)C3)cn1 [selpercatinib] ?
1.5

* * *

Experiment: 8 h pharmacokinetic study in wild-type, Cyp3a-/- and Cyp3aXAV mice
Conditions: female, mouse, in vivo, po, 10 mg/kg
Quantity measured: AUC(0-t) (ng·h/mL)
# output: bare number, implied unit ng·h/mL

Which AUC(0-t) reading was recorded for the compound COc1ccc(CN2C3CC2CN(c2ccc(-c4cc(OCC(C)(C)O)cn5ncc(C#N)c45)cn2)C3)cn1 [selpercatinib] ?
45800

* * *

Assay: 4 h main pharmacokinetic experiment in wild-type, Abcb1a/1b-/-, Abcg2-/- and Abcb1a/1b;Abcg2-/- mice
Format: in vivo
Details: male, FVB, mouse, small intestine, po, 10 mg/kg, male Abcb1a/1b;Abcg2-/- mice, 10 mg/kg oral, 4 h main experiment; read-out: CSI (small intestine tissue concentration)
Quantity measured: concentration at 4 h (ng/g)
# output: bare number, implied unit ng/g

Which concentration at 4 h reading was recorded for the compound COc1ccc(CN2C3CC2CN(c2ccc(-c4cc(OCC(C)(C)O)cn5ncc(C#N)c45)cn2)C3)cn1 ?
11600

* * *

Test: 2 h pharmacokinetic study with or without elacridar in wild-type and Abcb1a/1b;Abcg2-/- mice
Type: in vivo
Details: male, Abcb1a/1b;Abcg2-/- (>99% FVB genetic background), mouse, plasma, po, 10 mg/kg, male Abcb1a/1b;Abcg2-/- mice, elacridar 50 mg/kg oral 2 h prior, 10 mg/kg oral, 2 h
Protocol: Mice were housed and handled according to institutional guidelines complying with Dutch and EU legislation. All experimental animal protocols were evaluated and approved by the institutional animal care and use committee. […] All experimental animal protocols (WP9450, 9669, 9760), including power calculations, designed under the nationally approved DEC/CCD project AVD301002016595, were evaluated and approved by the institutional animal care and use committee of The Netherlands Cancer Institute. […]
Quantity measured: Tmax (min)
# output: bare number, implied unit min

Which Tmax reading was recorded for the molecule COc1ccc(CN2C3CC2CN(c2ccc(-c4cc(OCC(C)(C)O)cn5ncc(C#N)c45)cn2)C3)cn1 ?
47.4
